# target or system: T1, human CD3 expressed on cells (Jurkat cells; human primary T cells) (human, UniProt P07766 23-207; P04234 22-171; P09693 23-182)
# T1 construct: whole, on cells
# T1 sequence (P07766 23-207, chain 1 of 3): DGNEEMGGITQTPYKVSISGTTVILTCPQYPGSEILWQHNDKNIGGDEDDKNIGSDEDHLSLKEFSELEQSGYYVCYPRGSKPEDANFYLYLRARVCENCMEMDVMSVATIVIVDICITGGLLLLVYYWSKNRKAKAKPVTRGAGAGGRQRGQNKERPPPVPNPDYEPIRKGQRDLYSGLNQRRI
# T1 sequence (P04234 22-171, chain 2 of 3): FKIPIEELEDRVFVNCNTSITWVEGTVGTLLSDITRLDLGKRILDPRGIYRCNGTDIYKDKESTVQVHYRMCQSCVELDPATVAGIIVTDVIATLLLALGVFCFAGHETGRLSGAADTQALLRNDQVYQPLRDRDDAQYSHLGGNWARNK
# T1 sequence (P09693 23-182, chain 3 of 3): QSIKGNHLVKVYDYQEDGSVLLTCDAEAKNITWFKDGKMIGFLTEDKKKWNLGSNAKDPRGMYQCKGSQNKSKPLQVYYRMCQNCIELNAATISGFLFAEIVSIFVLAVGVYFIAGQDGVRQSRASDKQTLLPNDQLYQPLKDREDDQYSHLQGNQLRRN
# protocol details: flow cytometry, 25 nM, Jurkat cells
recorded endpoint: Binding (FOI)
Please give a number only; it is taken to be in FOI.

Study these solved cases before continuing.
mAb 203 (antibody, V domains shown, VH/VL only) VH: QVQLVESGGGVVQPGGSLRLSCAASGFTFRGYGMHWVRQAPGKGLEWVAIIYYNGRKTYYAESVKGRFTISRDNSKNTLSLQMNSLRVEDTAVYYCTAGQGYNWFDPWGQGTLVTVSS VL: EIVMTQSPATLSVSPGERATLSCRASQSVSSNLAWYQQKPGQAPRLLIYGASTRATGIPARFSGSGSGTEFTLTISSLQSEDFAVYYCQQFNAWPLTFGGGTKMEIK = 201
mAb 210 (antibody, V domains shown, VH/VL only) VH: QVQLVESGGGVVQPGRSLRLSCAASGFTFSGYGMHWVRQAPGKGLEWLAIIYYNGNNRKYADSVKGRFTISRDNSKNTVSLQMNSLRVEDTAMYYCTRGDGYNWFVTWGQGTLVTVSS VL: EIVMTQSPATLSVSPGERAALSCRASQSVTSNLAWYHQKPGQAPRLLIYGASTRATGIPVRFSGSGSGTEFTLTISSLQSEDFAVYYCQQYNNWPLTFGGGTKVENK = 168

Consider now this further binder.
Sample mAb 213 (antibody, V domains shown, VH/VL only) VH: QEQLVESGGGVVQPGGSLRLSCAASGFTFSGYGMHWVRQAPGKGLEWVAIIWYNGRKTYYAESVKGRFTISRDNSKNTLSLQMNSLRVEDTAVYYCTTGKGYNWFDPWGQGTLVTVSS VL: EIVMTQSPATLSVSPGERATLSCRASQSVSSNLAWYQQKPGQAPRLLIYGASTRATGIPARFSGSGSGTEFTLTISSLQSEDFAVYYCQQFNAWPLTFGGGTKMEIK — what was its Binding (FOI)?
192
